Source of measurements: PubChem BioAssay (NCI)

Field: TGI. Provide a value for each of the compounds that follow.
# System: NCI-H460 lung
# TEST_DESCRIPTION: NCI tumour cell line growth inhibition, 48 h
Numbers only, in µM.

Record excerpt, results attached:
CCN(Cc1ccc(F)cc1)c1ccc(CO)c(C)c1    32.3
COC(=O)C1=C(OC(=O)/C=C/c2ccccc2)C(C(=O)OC)[C@@]2(O)[C@@H](C(=O)OC)[C@H](C)C[C@@H]1[C@@H]2C(=O)OC (stereo partly drawn)    52.7
CCCC(C)n1c(C)nc2c1C(=O)c1ccccc1C2=O (stereo not drawn)    16.8

Query string: Please report the measured TGI for COc1ccc(/C=C/C(=O)c2cc(C(C)(C)C)c(O)c(C(C)(C)C)c2)cc1OC
Result string: 20.2

* * *

# System: OVCAR-3 ovarian
# TEST_DESCRIPTION: NCI tumour cell line growth inhibition, 48 h; in the data active means GI50 below about 0.43 µM; inactive means the rest
Write down the outcome that applies. Available outcomes: active, inactive

Cc1ccc(C(NC(=O)c2ccccc2)c2ccc3cccnc3c2O)cc1 (stereo unspecified)    active
Cc1cc(Nc2nc(-c3cccnc3)nc3ccccc23)n[nH]1    inactive
O=C(O)c1cn(C2CC2)c2cc(N3CCN(C(=O)Nc4nc(-c5ccccc5)cs4)CC3)c(F)cc2c1=O    inactive

Could you now look at the following compound, please?
Query string: Each compound tested received a call. Report the one for Nc1cc(O)ccc1N=Nc1ccc(-c2nc3ccccc3[nH]2)cc1 .
Result string: inactive

* * *

# System: K-562 leukemia
# TEST_DESCRIPTION: NCI tumour cell line growth inhibition, 48 h
PROPERTY_NAME: TGI

Record excerpt, results attached:
CC(=O)c1c(CN(C)c2ccccc2)n([O-])c2ccccc2[n+]1=O    > 100 µM
C[n+]1c(-c2ccc(/C=N/Nc3ccnc(N/N=C/c4ccc(-c5cn6ccsc6[n+]5C)cc4)n3)cc2)cn2ccsc21    39.7 µM
O=c1cc(NNc2cccc(F)c2)[nH]c(=O)[nH]1    84.4 µM
Clc1ccc(-c2csc(Nc3cccc(-c4csc(-c5ccccc5)n4)c3)n2)cc1    16.3 µM

For every item below, please supply its TGI.
1. CCOC(=O)c1c(C)n(Cc2ccccc2)c2c1cc(O)c1[nH]c(Cc3ccccc3)nc12
2. O=C(NCCO)c1ccc([N+](=O)[O-])cc1
3. COC(=O)C(=CNC(N)=O)C(=O)OC
4. O=C(O)C[C@@H]1[C@@H](O)[C@@H](O)CN2C(=O)c3ccccc3[C@H]12
5. CCN(CC)c1ccc(N=Nc2ccc([N+](=O)[O-])cc2OC(=O)/C=C/c2ccccc2)c(OC(=O)/C=C/c2ccccc2)c1
6. CN(Cc1cccc(F)c1)c1ccc(CO)c(Cl)c1

Result string:
1. > 40 µM
2. > 100 µM
3. > 100 µM
4. > 100 µM
5. > 100 µM
6. > 100 µM

* * *

Field: TGI. Provide a value for each of the compounds that follow.
# Test system: HT29 colon
# TEST_DESCRIPTION: NCI tumour cell line growth inhibition, 48 h

For every item below, please supply its TGI.
1. Cc1noc2c1C(=O)CCC2
2. CC1(C)C(=O)c2ccccc2OC1N1CCN(C2Oc3ccccc3C(=O)C2(C)C)CC1 (stereo not given)
3. COc1cc(C2=NNC(=O)c3ccccc3N2c2nc(-c3cccs3)nc3ccc(Br)cc23)cc(OC)c1OC
4. C(=N\Nc1ccc(-c2nc3ccccc3[nH]2)cc1)/c1c(-c2ccc(Cc3ccccc3)cc2)[nH]c2ccccc12
5. COC(=O)C1=C(c2ccc(OC)c(OC)c2)OC(c2cc(OC)c(OC)c(OC)c2)C1 (stereo not given)
6. COc1cc(CNc2cnc3cc(N)ccc3n2)cc(OC)c1OC

Result string:
["> 100 µM", "> 100 µM", "35.9 µM", "> 57.9 µM", "> 100 µM", "55.8 µM"]

For every item below, please supply its TGI.
1. CC12CC3OC(=O)C1COC14OC5(C2C1=O)C(O)(CCC1C4CC2OC24CC=CC(=O)C14C)C(=O)OC35C (stereo not given)
2. COc1ccccc1C1=C(Nc2ccccc2)C(=O)NC1=O
3. O=C1Nc2ccccc2Cn2c1cc1oc(-c3ccccc3)cc12
4. NNc1nncc2[nH]cnc12
5. Cc1c(-c2ccccc2)nn2cc(-c3ccccc3)nnc12
6. COc1cc2cc(C(=O)N3CC(CCl)c4c3cc(NC(=O)OCc3ccc([N+](=O)[O-])cc3)c3ccccc43)[nH]c2c(OC)c1OC (stereo not given)
7. O=C(/C=C/c1ccco1)c1ccc(NCc2nc3ccccc3[nH]2)cc1

Result string:
["> 100 µM", "> 25 µM", "> 100 µM", "> 100 µM", "> 100 µM", "> 100 µM", "38.3 µM"]

For every item below, please supply its TGI.
1. C=C1C(=O)O[C@H]2[C@H]3O[C@@H](C[C@@H]12)[C@@]1(C)CC[C@H](O1)[C@H](C)CCC[C@H]3C
2. CN(C)C(=Nc1nc(=[N+](C)C)ss1)N(C)C
3. Cc1cn(C2CC(N)C(C(=O)NCC(=O)O)O2)c(=O)[nH]c1=O (stereo not given)
4. CCCCC(C)C(OC(=O)CC(CC(=O)O)C(=O)O)C(CC(C)CC(O)CCCCC(O)CC(O)C(C)N)OC(=O)CC(CC(=O)O)C(=O)O (stereo not given)
5. C=C1c2nc3ccccc3n2C=C(c2ccc(C)cc2)N1c1ccc(C)cc1
6. CCN(CC)C(=S)Nc1ccc(-c2cc3ccc(O)cc3oc2=O)cc1
7. CCOC(=O)c1c(-c2ccc(Cl)cc2)c(C#N)c(=S)n(C2OC(COC(C)=O)C(OC(C)=O)C(OC(C)=O)C2OC(C)=O)c1-c1ccccc1 (stereo not given)

Result string:
3.04 µM
> 100 µM
> 100 µM
> 100 µM
> 100 µM
30.4 µM
> 100 µM
